Biological target: UniProt P24941

| MOLECULE SMILES | IC50 (nM) |
| --- | --- |
| CC(=O)c1nn(-c2ccc(C)cc2)c2c1C(C)(C)Cc1[nH]ncc1-2 | 87 |

---

Molecular target: UniProt P24941

| MOLECULE SMILES | IC50 |
| --- | --- |
| N#Cc1ccc(-n2nc(C(N)=O)c3c2-c2cn[nH]c2CC3)cc1 | > 20 µM |
| CNS(=O)(=O)c1ccc(-n2nc(C(N)=O)c3c2-c2cn[nH]c2CC3)cc1 | > 20 µM |
| COc1ccc(-n2nc(C(=O)O)c3ccc4[nH]ncc4c32)cc1 | > 20 µM |
| CNS(=O)(=O)c1ccc(-n2nc(C(N)=O)c3ccc4[nH]ncc4c32)cc1 | > 20 µM |
| CC(=O)c1nn(-c2ccc(C)cc2)c2c1CCc1[nH]ncc1-2 | > 20 µM |
| NC(=O)c1nn(-c2ccc(-c3ncc[nH]3)cc2)c2c1ccc1[nH]ncc12 | > 20 µM |
| NC(=O)c1nn(-c2ccc(C(F)(F)F)cc2)c2c1CCc1[nH]ncc1-2 | > 20 µM |
| NC(=O)c1nn(Cc2ccccc2)c2c1ccc1[nH]ncc12 | 2.98 µM |
| CC(=O)c1nn(-c2ccc(C)cc2)c2c1C(C)(C)Cc1[nH]ncc1-2 | 1.65 µM |
| NC(=O)c1nn(-c2ccc(-c3ncc[nH]3)cc2)c2c1CCc1[nH]ncc1-2 | > 20 µM |
